Origin of measurements: paper PMC3961306

# Tested on: forty-four human cancer cell lines
# measurement.protocol: Cell proliferation assay (ATPlite, 72 hours) in the 44 cell line Oncolines panel
# Format: cell-based
# measurement.setup: Homo sapiens, NCI-H460, cell line NCI-H460; read-out: cell panel IC50, NCI-H460
assay.readout: IC50 (nM)

1. CC(C)C[C@H](NC(=O)[C@H](Cc1ccccc1)NC(=O)c1cnccn1)B(O)O
2. COc1cc([C@@H]2c3cc4c(cc3[C@@H](O[C@@H]3O[C@@H]5CO[C@@H](C)O[C@H]5[C@H](O)[C@H]3O)[C@H]3COC(=O)[C@H]23)OCO4)cc(OC)c1O [etoposide]
3. CC[C@]1(O)C[C@H]2CN(CCc3c([nH]c4ccccc34)[C@@](C(=O)OC)(c3cc4c(cc3OC)N(C=O)[C@H]3[C@@](O)(C(=O)OC)[C@H](OC(C)=O)[C@]5(CC)C=CCN6CC[C@]43[C@@H]65)C2)C1
## Input List the 3 entries from lowest IC50 to highest IC50 value. Please express your ranking as an ordered list of the labels.
## Output 3, 1, 2

----------
# assay.system: panel of more than 300 wild-type and mutant kinases (313 kinase panel) (Homo sapiens)
# measurement.protocol: Kinase profiling in a biochemical assay panel (mobility shift assays and ELISA), %-inhibition at 1 μM; selectivity entropy
# measurement.setup: kinase CDK7/CycH/MAT1; 1 μM compound
assay.readout: %-inhibition, CDK7/CycH/MAT1 (%)
API: value field is a number in %; no unit string.

Example cases with answers are listed next.
Cc1cn(-c2cc(NC(=O)c3ccc(C)c(Nc4nccc(-c5cccnc5)n4)c3)cc(C(F)(F)F)c2)cn1    -2.34
CCCS(=O)(=O)Nc1ccc(F)c(C(=O)c2c[nH]c3ncc(-c4ccc(Cl)cc4)cc23)c1F    0.137

## Input Need %-inhibition, CDK7/CycH/MAT1 of O=S(=O)(c1cccc2cnccc12)N1CCCNCC1 , thanks.
## Output 7.49

## Input Need %-inhibition, CDK7/CycH/MAT1 of COc1cc2nccc(Oc3ccc(NC(=O)C4(C(=O)Nc5ccc(F)cc5)CC4)cc3)c2cc1OC [cabozantinib] , thanks.
## Output -10

----------
A collection of molecules and their measured %-inhibition, ACK
# assay.system: panel of more than 300 wild-type and mutant kinases (313 kinase panel) (Homo sapiens)
# measurement.protocol: Kinase profiling in a biochemical assay panel (mobility shift assays and ELISA), %-inhibition at 1 μM; selectivity entropy
# measurement.setup: kinase ACK; 1 μM compound
API: value field is a number in %; no unit string.

CC(C)(C)c1nc(-c2cccc(NS(=O)(=O)c3c(F)cccc3F)c2F)c(-c2ccnc(N)n2)s1 [dabrafenib]    24
O=S(=O)(c1cccc2cnccc12)N1CCCNCC1 [fasudil]    0.581

## Input Provide the documented %-inhibition, ACK with panel of more than 300 wild-type and mutant kinases (313 kinase panel) (Homo sapiens) as the system for CO[C@H]1C[C@@H]2CC[C@@H](C)[C@@](O)(O2)C(=O)C(=O)N2CCCC[C@H]2C(=O)O[C@H]([C@H](C)C[C@@H]2CC[C@@H](OC(=O)C(C)(CO)CO)[C@H](OC)C2)CC(=O)[C@H](C)/C=C(\C)[C@@H](O)[C@@H](OC)C(=O)[C@H](C)C[C@H](C)/C=C/C=C/C=C/1C [temsirolimus]
## Output -8

## Input Provide the documented %-inhibition, ACK with panel of more than 300 wild-type and mutant kinases (313 kinase panel) (Homo sapiens) as the system for CNC(=O)c1cc(Oc2ccc(NC(=O)Nc3ccc(Cl)c(C(F)(F)F)c3)c(F)c2)ccn1 [regorafenib]
## Output -3.35

## Input Provide the documented %-inhibition, ACK with panel of more than 300 wild-type and mutant kinases (313 kinase panel) (Homo sapiens) as the system for Cc1ccc(Nc2nccc(N(C)c3ccc4c(C)n(C)nc4c3)n2)cc1S(N)(=O)=O [pazopanib]
## Output 13

## Input Provide the documented %-inhibition, ACK with panel of more than 300 wild-type and mutant kinases (313 kinase panel) (Homo sapiens) as the system for Cc1cn(-c2cc(NC(=O)c3ccc(C)c(Nc4nccc(-c5cccnc5)n4)c3)cc(C(F)(F)F)c2)cn1 [nilotinib]
## Output 13

## Input Provide the documented %-inhibition, ACK with panel of more than 300 wild-type and mutant kinases (313 kinase panel) (Homo sapiens) as the system for CO[C@H]1C[C@@H]2CC[C@@H](C)[C@@](O)(O2)C(=O)C(=O)N2CCCC[C@H]2C(=O)O[C@H]([C@H](C)C[C@@H]2CC[C@@H](OCCO)[C@H](OC)C2)CC(=O)[C@H](C)/C=C(\C)[C@@H](O)[C@@H](OC)C(=O)[C@H](C)C[C@H](C)/C=C/C=C/C=C/1C [everolimus]
## Output -4.62

----------
# assay.system: panel of more than 300 wild-type and mutant kinases (313 kinase panel) (Homo sapiens)
# measurement.protocol: Kinase profiling in a biochemical assay panel (mobility shift assays and ELISA), %-inhibition at 1 μM; selectivity entropy
# measurement.setup: kinase PIM3; 1 μM
assay.readout: %-inhibition of PIM3 (%)
API: value field is a number in %; no unit string.

Example cases with answers are listed next.
COc1cc2c(Nc3ccc(Br)cc3F)ncnc2cc1OCC1CCN(C)CC1 [vandetanib]    -6
CS(=O)(=O)CCNCc1ccc(-c2ccc3ncnc(Nc4ccc(OCc5cccc(F)c5)c(Cl)c4)c3c2)o1 [lapatinib]    -3.44
CCCS(=O)(=O)Nc1ccc(F)c(C(=O)c2c[nH]c3ncc(-c4ccc(Cl)cc4)cc23)c1F [vemurafenib]    -5

## Input Need %-inhibition of PIM3 of Cc1nc(Nc2ncc(C(=O)Nc3c(C)cccc3Cl)s2)cc(N2CCN(CCO)CC2)n1 [dasatinib] , thanks.
## Output -1.78

----------
# Tested on: forty-four human cancer cell lines
# measurement.protocol: Cell proliferation assay (ATPlite, 72 hours) in the 44 cell line Oncolines panel
# Format: cell-based
# measurement.setup: read-out: cell panel IC50, K-562; cell line K-562
assay.readout: IC50 (µM)
API: value field is a number in µM; no unit string.

## Input Need IC50 of COc1cccc2c1C(=O)c1c(O)c3c(c(O)c1C2=O)C[C@@](O)(C(=O)CO)C[C@@H]3O[C@H]1C[C@H](N)[C@H](O)[C@H](C)O1 [doxorubicin] , thanks.
## Output 0.057

----------
# assay.system: panel of more than 300 wild-type and mutant kinases (313 kinase panel) (Homo sapiens, UniProt Q9HBH9)
# measurement.protocol: Kinase profiling in a biochemical assay panel (mobility shift assays and ELISA), %-inhibition at 1 μM; selectivity entropy
# measurement.setup: kinase MNK2; 1 μM
assay.readout: %-inhibition of MNK2 (%)
API: value field is a number in %; no unit string.

COc1cc(Nc2c(C#N)cnc3cc(OCCCN4CCN(C)CC4)c(OC)cc23)c(Cl)cc1Cl    -2
C[C@@H](Oc1cc(-c2cnn(C3CCNCC3)c2)cnc1N)c1c(Cl)ccc(F)c1Cl    2
CNC(=O)c1cc(Oc2ccc(NC(=O)Nc3ccc(Cl)c(C(F)(F)F)c3)c(F)c2)ccn1    73
N#CC[C@H](C1CCCC1)n1cc(-c2ncnc3[nH]ccc23)cn1    54
COc1cc2nccc(Oc3ccc(NC(=O)C4(C(=O)Nc5ccc(F)cc5)CC4)cc3)c2cc1OC [cabozantinib]    97

## Input Need %-inhibition of MNK2 of O=S(=O)(c1cccc2cnccc12)N1CCCNCC1 , thanks.
## Output 12

----------
# assay.system: panel of more than 300 wild-type and mutant kinases (313 kinase panel) (Homo sapiens, UniProt P36507)
# measurement.protocol: Kinase profiling in a biochemical assay panel (mobility shift assays and ELISA), %-inhibition at 1 μM; selectivity entropy
# measurement.setup: kinase MAP2K2; compound at 1 μM
assay.readout: %-inhibition of MAP2K2 (%)
API: value field is a number in %; no unit string.

Cc1cn(-c2cc(NC(=O)c3ccc(C)c(Nc4nccc(-c5cccnc5)n4)c3)cc(C(F)(F)F)c2)cn1    -12
CCCS(=O)(=O)Nc1ccc(F)c(C(=O)c2c[nH]c3ncc(-c4ccc(Cl)cc4)cc23)c1F    30
COc1cc2nccc(Oc3ccc(NC(=O)C4(C(=O)Nc5ccc(F)cc5)CC4)cc3)c2cc1OC [cabozantinib]    61
O=S(=O)(c1cccc2cnccc12)N1CCCNCC1    13
CS(=O)(=O)CCNCc1ccc(-c2ccc3ncnc(Nc4ccc(OCc5cccc(F)c5)c(Cl)c4)c3c2)o1    6

Now look at this one.
## Input Need %-inhibition of MAP2K2 of CNC(=O)c1cc(Oc2ccc(NC(=O)Nc3ccc(Cl)c(C(F)(F)F)c3)c(F)c2)ccn1 , thanks.
## Output 16

----------
# assay.system: panel of more than 300 wild-type and mutant kinases (313 kinase panel) (Homo sapiens, UniProt Q96KB5)
# Sequence (Q96KB5 whole entry, change not shown): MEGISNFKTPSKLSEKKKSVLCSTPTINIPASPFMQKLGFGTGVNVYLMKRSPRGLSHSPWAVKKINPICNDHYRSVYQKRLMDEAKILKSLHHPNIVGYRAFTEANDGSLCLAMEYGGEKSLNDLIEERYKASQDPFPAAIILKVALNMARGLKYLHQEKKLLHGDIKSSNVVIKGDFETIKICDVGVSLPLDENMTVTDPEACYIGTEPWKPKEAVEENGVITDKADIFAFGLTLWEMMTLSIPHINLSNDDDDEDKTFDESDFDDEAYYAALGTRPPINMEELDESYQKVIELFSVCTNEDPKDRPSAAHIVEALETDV
# measurement.protocol: Kinase profiling in a biochemical assay panel (mobility shift assays and ELISA), %-inhibition at 1 μM; selectivity entropy
# measurement.setup: kinase PBK; 1 μM
assay.readout: %-inhibition of PBK (%)
API: value field is a number in %; no unit string.

CNC(=O)c1cc(Oc2ccc(NC(=O)Nc3ccc(Cl)c(C(F)(F)F)c3)c(F)c2)ccn1    -29
CO[C@H]1C[C@@H]2CC[C@@H](C)[C@@](O)(O2)C(=O)C(=O)N2CCCC[C@H]2C(=O)O[C@H]([C@H](C)C[C@@H]2CC[C@@H](OC(=O)C(C)(CO)CO)[C@H](OC)C2)CC(=O)[C@H](C)/C=C(\C)[C@@H](O)[C@@H](OC)C(=O)[C@H](C)C[C@H](C)/C=C/C=C/C=C/1C    -9

Now look at this one.
## Input Need %-inhibition of PBK of COc1cc(Nc2c(C#N)cnc3cc(OCCCN4CCN(C)CC4)c(OC)cc23)c(Cl)cc1Cl , thanks.
## Output -24
